studyTarget: PARLΔ77 (β-cleavage form of human PARL) (human) (UniProt Q9H300)
Sequence (Q9H300 77-379, stated change not applied): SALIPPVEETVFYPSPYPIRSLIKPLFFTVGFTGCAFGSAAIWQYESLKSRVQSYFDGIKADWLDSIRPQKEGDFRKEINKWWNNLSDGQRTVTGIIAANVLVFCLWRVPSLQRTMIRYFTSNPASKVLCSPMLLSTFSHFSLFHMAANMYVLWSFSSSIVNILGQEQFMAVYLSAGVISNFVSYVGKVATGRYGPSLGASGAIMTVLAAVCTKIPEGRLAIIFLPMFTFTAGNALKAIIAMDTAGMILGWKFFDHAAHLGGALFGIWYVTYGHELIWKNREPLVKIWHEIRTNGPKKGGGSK
methodDescription: competitive inhibition of FRET peptide cleavage (enzyme kinetics); PARLΔ77 0.8 μM; IQ-PGAM5 20-29 (0.13-19 μM) as main substrate; nonfluorescent PINK1 89-111 at 2.5, 5, 10, 20 μM; Michaelis–Menten plots fitted globally, competitive model; Kd represented by Ki
assayMetric: Ki (nM)
One number for each entry, in nM.

Sample AWGCAGPCGRAVFLAFGLGLGLI [PINK1 TM domain (amino acids 89–111), nonfluorescent] — what was its Ki?
2400
